Data provenance: PubChem BioAssay (NCI)

- Test system: MDA-MB-435 melanoma
- assay details: NCI-60 one-dose screen, 48 h
- experimental context: 10 µM unless noted
Compounds without any hit were thinned out: in the full panel of roughly 83,000, 20% have a hit. Activity calls are given as the source filed them. Rule for the calls: active = growth percent below 10; inactive = the rest.
Outcome field: choose from TRUE = active, FALSE = inactive

Request: Answer briefly: the call reported for COc1ccc(C(=O)COc2ccc(/C=C3\Oc4ccccc4C3=O)cc2)cc1 in this assay.
Response: FALSE

Request: Hello, I am checking results. What call was entered for C#Cc1cccc(NC(=O)c2ccc(NC(=O)CCl)cc2)c1 ?
Response: TRUE

Request: Field: outcome | Entry: N#C/C(=C/C=C/c1cccc(Cl)c1)S(=O)c1ccccc1 (stereo unspecified)
Response: TRUE

Request: What did this assay record as the result for COc1cc(OC)cc(C2CC(=O)Nc3c2c(C)nn3-c2nc3ccccc3[nH]2)c1 (stereo unspecified) ?
Response: TRUE

Request: Kindly provide the recorded test outcome for the following compound: Cc1cc(Cl)nc(NCc2cc(Nc3ccnc4cc(Cl)ccc34)ccc2F)n1
Response: FALSE

Request: Hi, sorry to bother you, what did the test record for COc1ccc(C2=Nc3c(N)ncnc3NC(c3ccc4c(c3)OCO4)C2)cc1 (stereo unspecified) ?
Response: FALSE

Request: Could you check what this test reported for O=C(CSc1nccc(Nc2ccc(S(=O)(=O)Nc3nccs3)cc2)n1)c1ccc(F)cc1 ?
Response: FALSE

Request: Called result for CC1=C([Se]CC(OC(=O)CC[Se]c2ccccc2)C(=O)NCCCCCC(=O)OCc2ccccc2)C(=O)c2ccccc2C1=O (stereo unspecified)
Response: FALSE

Request: // param item: O=C(c1ccccc1)N1N=C(c2ccccc2)CC1c1nnc2n(Cc3ccccc3)c(=O)c3c4c(sc3n12)CCCC4 (stereo unspecified) ; yields the recorded call
Response: FALSE

Request: Status in this test for Cc1ccc(-n2c(-c3ccccc3)c(-c3ccccc3)c3c(SCC(=O)n4[nH]c(N)cc4=O)ncnc32)cc1 ?
Response: FALSE

Request: Please state the recorded outcome for this compound: O=C1OC(c2nc3ccccc3s2)=C/C1=C\c1ccc(O)cc1
Response: FALSE

Request: Short answer needed: outcome of this test for COC(=O)[C@H](CSC)N(C)C(=O)[C@@H]1CSSC[C@@H](NC(=O)c2nc3ccccc3cc2O)C(=O)NCC(=O)N1C ?
Response: FALSE

Request: How was CC1(c2ccccc2)NC(=O)N(NC(=O)CSc2nc(-c3cccs3)nc3ccccc23)C1=O (stereo unspecified) classified in this test?
Response: FALSE

Request: Please share the test call associated with Cc1ccc2nc(C)c(-c3nnc(SCc4ccc(C#N)cc4)o3)n2c1 .
Response: FALSE

Request: Call for entry COc1cc(/C=C/C(=O)c2ccc(Nc3nc(Nc4ccc(F)cc4)nc(Nc4ccc(Cl)cc4)n3)cc2)cc(OC)c1OC :
Response: FALSE

Request: // param item: CN1CCN(CCCOc2ccc3nc(Nc4ccc(F)c(F)c4)ccc3c2)CC1 ; yields the recorded call
Response: TRUE
